biological target: UniProtKB P31652; assay: Serotonin transporter binding (5-HTT); settings: Table 2; read-out: 5-HTT IC50 (nm)
Sequence (P31652 whole entry): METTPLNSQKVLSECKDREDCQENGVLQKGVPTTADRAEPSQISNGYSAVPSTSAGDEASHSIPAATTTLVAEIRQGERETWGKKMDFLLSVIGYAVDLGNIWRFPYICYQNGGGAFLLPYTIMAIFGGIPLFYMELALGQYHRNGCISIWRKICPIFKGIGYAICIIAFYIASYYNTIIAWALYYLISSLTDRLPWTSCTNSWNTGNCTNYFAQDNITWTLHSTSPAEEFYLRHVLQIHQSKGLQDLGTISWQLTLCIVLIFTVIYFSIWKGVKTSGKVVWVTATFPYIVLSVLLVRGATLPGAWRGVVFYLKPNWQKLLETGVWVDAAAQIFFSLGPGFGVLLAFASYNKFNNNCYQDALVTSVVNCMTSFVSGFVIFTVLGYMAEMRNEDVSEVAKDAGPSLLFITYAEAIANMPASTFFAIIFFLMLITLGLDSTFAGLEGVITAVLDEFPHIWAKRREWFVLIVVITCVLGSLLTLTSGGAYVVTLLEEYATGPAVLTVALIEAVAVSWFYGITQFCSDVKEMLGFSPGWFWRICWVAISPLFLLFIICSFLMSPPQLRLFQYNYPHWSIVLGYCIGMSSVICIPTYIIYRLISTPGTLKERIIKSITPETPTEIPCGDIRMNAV
REPORTED_METRIC: IC50 (nM)

- MOLECULE: "CCCC1CN(C)CCC1c1ccc(Cl)cc1 (single isomer, unassigned; (+))"
  READOUT_UNITS: "nM"
  INEQUALITY_SYMBOL: "="
  READOUT_NUMBER: 155
- MOLECULE: "Cc1noc(C2CN(C)CCC2c2ccc(Cl)cc2)n1 (single isomer, unassigned; (+))"
  READOUT_UNITS: "nM"
  INEQUALITY_SYMBOL: ">"
  READOUT_NUMBER: 10000

* * *

target: dopamine transporter (Rattus norvegicus); construct: from tissue; P2 synaptosomes for uptake; assay: [3H]WIN 35,428 binding to rat striatal membranes / dopamine transporter binding (DAT); settings: IC50 (nM) [3H]WIN 35,428 binding, rat striatal membranes; Table 1
Sequence (P23977 whole entry): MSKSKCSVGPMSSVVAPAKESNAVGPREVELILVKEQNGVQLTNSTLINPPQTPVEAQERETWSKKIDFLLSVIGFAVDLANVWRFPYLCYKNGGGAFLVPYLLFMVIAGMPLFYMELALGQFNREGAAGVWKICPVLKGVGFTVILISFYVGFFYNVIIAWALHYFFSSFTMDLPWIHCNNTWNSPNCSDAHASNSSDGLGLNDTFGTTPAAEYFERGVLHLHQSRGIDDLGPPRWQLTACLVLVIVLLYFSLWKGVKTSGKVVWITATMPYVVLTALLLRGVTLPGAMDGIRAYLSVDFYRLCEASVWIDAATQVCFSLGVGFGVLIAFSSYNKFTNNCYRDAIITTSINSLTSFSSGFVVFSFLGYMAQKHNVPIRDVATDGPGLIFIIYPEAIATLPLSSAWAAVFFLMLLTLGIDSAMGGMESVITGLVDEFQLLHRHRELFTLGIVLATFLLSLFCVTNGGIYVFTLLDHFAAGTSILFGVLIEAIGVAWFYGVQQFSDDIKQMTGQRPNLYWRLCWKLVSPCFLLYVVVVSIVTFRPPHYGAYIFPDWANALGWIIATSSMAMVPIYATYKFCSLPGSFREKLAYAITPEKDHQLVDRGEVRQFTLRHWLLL
Listed here: items and their measured IC50.
REPORTED_METRIC: IC50 (nM)

- COMPOUND: "COC(=O)C1CN(C)CCC1c1ccc(Cl)cc1 (single isomer, unassigned; (-)) [Compound 12]"
  REPORTED_METRIC: "IC50"
  READOUT_NUMBER: 653
- COMPOUND: "CN1CCC(c2ccc(Cl)cc2)C(CO)C1 (single isomer, unassigned; (+)) [Compound 13]"
  REPORTED_METRIC: "IC50"
  READOUT_NUMBER: 240
- COMPOUND: "COC(=O)[C@@H]1CN(C)CC[C@@H]1c1ccc(Cl)cc1 (racemic) [Compound 1]"
  REPORTED_METRIC: "IC50"
  READOUT_NUMBER: 53.7
- COMPOUND: "COC(=O)[C@@H]1CN(C)CC[C@@H]1c1ccccc1 [Compound 10]"
  REPORTED_METRIC: "IC50"
  READOUT_NUMBER: 769
- COMPOUND: "CN1CCC(c2ccc(Cl)cc2)C(CO)C1 (single isomer, unassigned; (+)) [Compound 6]"
  REPORTED_METRIC: "IC50"
  READOUT_NUMBER: 442
- COMPOUND: "CN1CC[C@H](c2ccc(Cl)cc2)[C@H](CO)C1 [Compound 5]"
  REPORTED_METRIC: "IC50"
  READOUT_NUMBER: 75.3
- COMPOUND: "COC(=O)[C@@H]1CN(C)CC[C@H]1c1ccc(Cl)cc1 (racemic) [Compound 2]"
  REPORTED_METRIC: "IC50"
  READOUT_NUMBER: 197
- COMPOUND: "CC(=O)OCC1CN(C)CCC1c1ccc(Cl)cc1 (single isomer, unassigned; (+)) [Compound 8]"
  REPORTED_METRIC: "IC50"
  READOUT_NUMBER: 928
- COMPOUND: "CC(=O)OCC1CN(C)CCC1c1ccc(Cl)cc1 (single isomer, unassigned; (+)) [Compound 14]"
  REPORTED_METRIC: "IC50"
  READOUT_NUMBER: 461

* * *

molecular target: norepinephrine transporter (Rattus norvegicus); assay: Norepinephrine transporter binding (NET); settings: Table 2; read-out: NET IC50 (nm)
Sequence (Q9WTR4 1-597): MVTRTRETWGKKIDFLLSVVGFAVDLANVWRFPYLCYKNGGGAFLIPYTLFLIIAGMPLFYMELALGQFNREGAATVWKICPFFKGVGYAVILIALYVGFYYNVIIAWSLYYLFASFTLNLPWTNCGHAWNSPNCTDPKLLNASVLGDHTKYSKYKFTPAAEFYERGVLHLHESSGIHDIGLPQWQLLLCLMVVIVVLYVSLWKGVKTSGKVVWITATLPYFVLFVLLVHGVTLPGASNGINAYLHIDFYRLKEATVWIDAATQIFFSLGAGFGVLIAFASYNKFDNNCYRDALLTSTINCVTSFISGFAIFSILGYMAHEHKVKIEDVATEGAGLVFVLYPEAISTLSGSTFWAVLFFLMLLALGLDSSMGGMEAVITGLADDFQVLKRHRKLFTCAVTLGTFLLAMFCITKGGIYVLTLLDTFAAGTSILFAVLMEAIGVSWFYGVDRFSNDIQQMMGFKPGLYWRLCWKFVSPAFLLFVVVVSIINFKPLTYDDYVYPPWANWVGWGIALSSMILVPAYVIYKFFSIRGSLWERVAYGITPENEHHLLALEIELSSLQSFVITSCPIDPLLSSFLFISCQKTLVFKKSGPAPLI

- COMPOUND: "Cc1noc(C2CN(C)CCC2c2ccc(Cl)cc2)n1 (single isomer, unassigned; (+)) [Compound 56]"
  TARGET_ENTITY: "norepinephrine transporter (Rattus norvegicus)"
  INEQUALITY_SYMBOL: "="
  IC50 / nM: 1130
- COMPOUND: "COC(=O)C1CN(C)CCC1c1cccc2ccccc12 (racemic) [Compound 73]"
  TARGET_ENTITY: "norepinephrine transporter (Rattus norvegicus)"
  INEQUALITY_SYMBOL: "="
  IC50 / nM: 2700
- COMPOUND: "CCCC1CN(C)CCC1c1ccc(Cl)cc1 (single isomer, unassigned; (+)) [Compound 15]"
  TARGET_ENTITY: "norepinephrine transporter (Rattus norvegicus)"
  INEQUALITY_SYMBOL: "="
  IC50 / nM: 183
- COMPOUND: "CCc1ccc(C2CCN(C)CC2C(=O)OC)cc1 (single isomer, unassigned; (-)) [Compound 81]"
  TARGET_ENTITY: "norepinephrine transporter (Rattus norvegicus)"
  INEQUALITY_SYMBOL: ">"
  IC50 / nM: 10000
